test-system: Human PD-L1/PD-1 (Homo sapiens, UniProt Q9NZQ7)
Construct: made in house; host or cells: HEK293T
Sequence (Q9NZQ7 with tags, fused parts or gaps): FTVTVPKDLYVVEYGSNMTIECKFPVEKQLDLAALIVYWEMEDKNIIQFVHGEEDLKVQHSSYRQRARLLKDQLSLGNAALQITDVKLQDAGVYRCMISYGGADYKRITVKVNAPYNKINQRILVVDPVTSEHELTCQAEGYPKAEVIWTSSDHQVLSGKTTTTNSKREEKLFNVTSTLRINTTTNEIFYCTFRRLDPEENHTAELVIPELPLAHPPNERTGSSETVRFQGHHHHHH
test: HTRF PD-1-Ig/PD-L1-His binding assay (human PD-L1)
test-context: cluster symbol; read-out: HTRF IC50 cluster
pIC50: −log10 of the molar value. Positions of bridges follow the written chain, without caps; N, C: chain ends. Non-standard residues stand in square brackets, D forms with d. Residues, ends and D or L forms follow the SMILES beside them. ξ: configuration not given here. Bta = N[C@@H](Cc1csc2ccccc12)C(=O)O; NMeNle = CCCC[C@H](NC)C(=O)O; NMeM = CN[C@@H](CCSC)C(=O)O; NMeA = CN[C@@H](C)C(=O)O; Dap = NC[C@H](N)C(=O)O; ξC = NC(CS)C(=O)O; Sar = CNCC(=O)O
property: pIC50

compound: CCCC[C@H]1C(=O)N[C@@H](CCCNC(=N)N)C(=O)NC(C(=O)NCC(N)=O)CSCC(=O)N[C@@H](Cc2ccc(O)cc2)C(=O)N(C)[C@@H](C)C(=O)N[C@@H](CC(N)=O)C(=O)N2CCC[C@H]2C(=O)N[C@@H](CN)C(=O)N[C@@H](CC(C)C)C(=O)N2CCC[C@H]2C(=O)N[C@@H](Cc2c[nH]c3ccccc23)C(=O)N[C@@H](CO)C(=O)N[C@@H](Cc2csc3ccccc23)C(=O)N(C)[C@@H](CCSC)C(=O)N1C (some centres unmarked) [Example 9090] ({CH2CO}-Y[NMeA]NP[Dap]LPWS[Bta][NMeM][NMeNle]R[ξC]G-NH2; thioether N-14)
pIC50: 8.17 to 9.41

Next compound, pIC50 to be filled in.
*Q* Tell me the measured pIC50 of CCCC[C@H]1C(=O)N(C)[C@@H](CCCC)C(=O)N[C@@H](CCCNC(=N)N)C(=O)N[C@H](C(=O)NCC(N)=O)CSCC(=O)N[C@@H](Cc2ccccc2)C(=O)N(C)[C@@H](C)C(=O)N[C@@H](CC(N)=O)C(=O)N2CCC[C@H]2C(=O)N[C@@H](Cc2cnc[nH]2)C(=O)N[C@@H](CC(C)C)C(=O)N(C)CC(=O)N[C@@H](Cc2c[nH]cn2)C(=O)N[C@@H](CO)C(=O)N[C@@H](Cc2c[nH]c3ccccc23)C(=O)N1C [Example 1073] ({CH2CO}-F[NMeA]NPHL[Sar]HSW[NMeNle][NMeNle]RCG-NH2; thioether N-14) , please.
*A* < 7.52

---

test-system: Human PD-L1/PD-1 (Homo sapiens)
Construct: made in house; host or cells: HEK293T
test: HTRF PD-1-Ig/PD-L1-His binding assay (human PD-L1)
test-context: cluster symbol; read-out: HTRF IC50 cluster
pIC50: −log10 of the molar value. Positions of bridges follow the written chain, without caps; N, C: chain ends. Non-standard residues stand in square brackets, D forms with d. Residues, ends and D or L forms follow the SMILES beside them. ξ: configuration not given here. Bta = N[C@@H](Cc1csc2ccccc12)C(=O)O; Pip(4-aza) = O=C(O)[C@@H]1CNCCN1; NMeNle = CCCC[C@H](NC)C(=O)O; NMeA = CN[C@@H](C)C(=O)O; Dab = NCC[C@H](N)C(=O)O; Dap = NC[C@H](N)C(=O)O; ξC = NC(CS)C(=O)O; Sar = CNCC(=O)O
property: pIC50

compound: CCCC[C@H]1C(=O)N(C)[C@@H](CCCC)C(=O)N[C@@H](CC(C)C)C(=O)N[C@H](C(=O)NCC(N)=O)CSCC(=O)N[C@@H](Cc2ccc(O)cc2)C(=O)N(C)[C@@H](C)C(=O)N[C@@H](CC(N)=O)C(=O)N2CCC[C@H]2C(=O)N[C@@H](CN)C(=O)N[C@@H](CC(C)C)C(=O)N2CCNC[C@H]2C(=O)N[C@@H](Cc2c[nH]c3ccccc23)C(=O)N[C@@H](CCN)C(=O)N[C@@H](Cc2c[nH]c3ccccc23)C(=O)N1C [Example 6050] ({CH2CO}-Y[NMeA]NP[Dap]L[Pip(4-aza)]W[Dab]W[NMeNle][NMeNle]LCG-NH2; thioether N-14)
pIC50: 8.17 to 9.41

compound: CCCC[C@H]1C(=O)N(C)[C@@H](CCCC)C(=O)N[C@@H](CCCNC(=N)N)C(=O)N[C@H](C(=O)NCC(N)=O)CSCC(=O)N[C@@H](Cc2ccccc2)C(=O)N(C)[C@@H](C)C(=O)N[C@@H](CC(N)=O)C(=O)N2CCC[C@H]2C(=O)N[C@@H](CC(=O)O)C(=O)N[C@@H](CC(C)C)C(=O)N(C)CC(=O)N[C@@H](Cc2c[nH]c3ccccc23)C(=O)N[C@@H](CO)C(=O)N[C@@H](Cc2c[nH]c3ccccc23)C(=O)N1C [Example 1064] ({CH2CO}-F[NMeA]NPDL[Sar]WSW[NMeNle][NMeNle]RCG-NH2; thioether N-14)
pIC50: < 7.52

compound: CCCC[C@H]1C(=O)N(C)[C@@H](CCCC)C(=O)N[C@@H](CCCNC(=N)N)C(=O)NC(C(=O)NCC(N)=O)CSCC(=O)N[C@@H](Cc2ccc(O)cc2)C(=O)N(C)[C@@H](C)C(=O)N[C@@H](CC(N)=O)C(=O)N2CCC[C@H]2C(=O)N[C@@H](Cc2cnc[nH]2)C(=O)N[C@@H](CC(N)=O)C(=O)N2CCC[C@H]2C(=O)N[C@@H](Cc2c[nH]c3ccccc23)C(=O)N[C@@H](CO)C(=O)N[C@@H](Cc2csc3ccccc23)C(=O)N1C (stereo partly shown) [Example 9064] ({CH2CO}-Y[NMeA]NPHNPWS[Bta][NMeNle][NMeNle]R[ξC]G-NH2; thioether N-14)
pIC50: 8.17 to 9.41

Moving on to the next compound.
*Q* # lookup: pIC50 of CCCC[C@H]1C(=O)N[C@@H](CCCNC(=N)N)C(=O)NC(C(=O)NCC(N)=O)CSCC(=O)N[C@@H](Cc2ccc(O)cc2)C(=O)N(C)[C@@H](C)C(=O)N[C@@H](CC(N)=O)C(=O)N2CCC[C@H]2C(=O)N[C@@H](Cc2cnc[nH]2)C(=O)N[C@@H](CC(C)C)C(=O)N2C[C@H](O)C[C@H]2C(=O)N[C@@H](Cc2c[nH]c3ccccc23)C(=O)N[C@@H](CO)C(=O)N[C@@H](Cc2c[nH]c3ccccc23)C(=O)N(C)[C@@H](CCOC)C(=O)N1C (stereo partly shown)
*A* 8.17 to 9.41

---

Entries and their pIC50 values follow.
test-system: LK35.2-hPD-L1 cells / PE-labeled PD-1-Ig (Homo sapiens, UniProt Q9NZQ7)
Construct: expressed in transfected cells; host or cells: LK35.2 mouse B cell line
Sequence (Q9NZQ7 19-290): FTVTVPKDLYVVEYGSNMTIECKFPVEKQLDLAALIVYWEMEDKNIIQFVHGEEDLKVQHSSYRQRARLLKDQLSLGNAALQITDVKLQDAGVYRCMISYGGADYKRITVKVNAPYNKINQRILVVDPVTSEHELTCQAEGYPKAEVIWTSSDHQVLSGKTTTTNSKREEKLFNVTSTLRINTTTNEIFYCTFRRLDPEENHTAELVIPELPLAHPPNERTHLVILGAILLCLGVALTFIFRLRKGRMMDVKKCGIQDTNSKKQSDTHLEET
test: LK35.2-hPD-L1 cell binding high-content screening assay
Type: cell-based
test-context: cluster symbol; cell line of CBA not given (LK35.2-hPD-L1 or 293T-hPD-L1); read-out: CBA IC50 cluster
pIC50: −log10 of the molar value. Positions of bridges follow the written chain, without caps; N, C: chain ends. Non-standard residues stand in square brackets, D forms with d. Residues, ends and D or L forms follow the SMILES beside them. Phe(3-OMe) = COc1cccc(C[C@H](N)C(=O)O)c1; NMeNle = CCCC[C@H](NC)C(=O)O; NMeA = CN[C@@H](C)C(=O)O; Sar = CNCC(=O)O

molecule: CCCC[C@H]1C(=O)N(C)[C@@H](CCCC)C(=O)N[C@@H](CCCNC(=N)N)C(=O)N[C@H](C(=O)NCC(N)=O)CSCC(=O)N[C@@H](Cc2ccccc2)C(=O)N(C)[C@@H](C)C(=O)N[C@@H](CC(N)=O)C(=O)N2CCC[C@H]2C(=O)N[C@@H](Cc2cnc[nH]2)C(=O)N[C@@H](CC(C)C)C(=O)N(C)CC(=O)N[C@@H](Cc2cccc(OC)c2)C(=O)N[C@@H](CO)C(=O)N[C@@H](Cc2c[nH]c3ccccc23)C(=O)N1C [Example 1085] ({CH2CO}-F[NMeA]NPHL[Sar][Phe(3-OMe)]SW[NMeNle][NMeNle]RCG-NH2; thioether N-14)
pIC50: < 7.13

*Q* What value of pIC50 has been recorded for this entry: CCCC[C@H]1C(=O)N(C)[C@@H](CCCC)C(=O)N[C@@H](CCCNC(=N)N)C(=O)N[C@H](C(=O)NCC(N)=O)CSCC(=O)N[C@@H](Cc2ccccc2)C(=O)N(C)[C@@H](C)C(=O)N[C@@H](CC(N)=O)C(=O)N2CCC[C@H]2C(=O)N[C@@H](Cc2cnc[nH]2)C(=O)N[C@@H](CC(C)C)C(=O)N[C@@H](CC(N)=O)C(=O)N[C@@H](Cc2c[nH]c3ccccc23)C(=O)N[C@@H](CO)C(=O)N[C@@H](Cc2c[nH]c3ccccc23)C(=O)N1C [Example 1075] ({CH2CO}-F[NMeA]NPHLNWSW[NMeNle][NMeNle]RCG-NH2; thioether N-14)
*A* < 7.13
